Each item that follows carries a reported OD450.
# MEASURED ON: T1, human MSLN-hFc protein (Acro, Cat. No. MSN-H5253) (human, UniProt Q13421 296-580)
# T1 construct: the method names the coated protein as human MSLN-hFc (Acro); also called human MSLN full-length protein
# PROTOCOL DETAILS: ELISA on coated antigen, antibody 100 nM
Dear colleague, please return just the value in OD450, with no unit written.

Below, each entry is followed by its recorded OD450 result.
F7.33.24 (scFv, not shown: small tags and cut ends, also called S009-F7.33.24 (parental variable regions, in the humanized-antibody ELISA)) scFv: QVQLQQPGTELVKPGASVKLSCKASGYTFTSYWMHWVKQRPGQGLEWIGNVNPSNGGSNYNEKFKNKATLTVDKSSSTADMQLNSLTSEDSAVYYCAPHYIGSRPGFAYWGQGTLVTVSGGGGGSGGGGSGGGGSDIVMTQSQKFMSTSVGDRVSVTCKASQNVGTNIAWYQQKPGQSPKALIYSASYRYSGVPDRFTGSGSGTDFTLTITNVQSEDLAEYFCQQYNSYPLTFGGGTKVEIK :: 2.58
F7.33.24-H1 (scFv, not shown: small tags and cut ends, also called S009-F7.33.24 humanized antibody VH1 + VL1) scFv: EVQLVQSGAEVKKPGASVKVSCKASGYTFTSYWMHWVRQAPGQRLEWMGNVNPSNGGSNYNEKFKNRVTITVDKSASTAYMELSSLRSEDTAVYYCAPHYIGSRPGFAYWGQGTLVTVSSGGGGSGGGGSGGGGSDIVMTQSPDSLAVSLGERATINCKASQNVGTNIAWYQQKPGQSPKALIYSASYRYSGVPDRFSGSGSGTDFTLTISSLQAEDVAVYYCQQYNSYPLTFGGGTKVEIK :: 2.9
F7.33.24-H12 (scFv, not shown: small tags and cut ends, also called S009-F7.33.24 humanized antibody VH2a + VL3) scFv: EVQLVQSGAEVKKPGASVKVSCKASGYTFTSYWMHWVRQAPGQGLEWMGNVNPSNAGSNYNEKFKNRVTITVDKSASTAYMELSSLRSEDTAVYYCAPHYIGSRPGFAYWGQGTLVTVSSGGGGSGGGGSGGGGSDIVMTQTPLSLSVTPGQPASISCKASQNVGTNIAWYQQKPGQSPQALIYSASYRYSGVPDRFSGSGSGTDFTLKISRVEAEDVGVYYCQQYNSYPLTFGGGTKVEIK :: 2.65

Okay, next one:
I'd like to know its OD450. The binder in question is F7.33.24-H7 (scFv, not shown: small tags and cut ends, also called S009-F7.33.24 humanized antibody VH2 + VL1) scFv: EVQLVQSGAEVKKPGASVKVSCKASGYTFTSYWMHWVRQAPGQGLEWMGNVNPSNGGSNYNEKFKNRVTITVDKSASTAYMELSSLRSEDTAVYYCAPHYIGSRPGFAYWGQGTLVTVSSGGGGSGGGGSGGGGSDIVMTQSPDSLAVSLGERATINCKASQNVGTNIAWYQQKPGQSPKALIYSASYRYSGVPDRFSGSGSGTDFTLTISSLQAEDVAVYYCQQYNSYPLTFGGGTKVEIK
2.79
